MEASURED ON: Glucagon receptor (Rattus norvegicus) (UniProt P30082)
Sequence (P30082 whole entry): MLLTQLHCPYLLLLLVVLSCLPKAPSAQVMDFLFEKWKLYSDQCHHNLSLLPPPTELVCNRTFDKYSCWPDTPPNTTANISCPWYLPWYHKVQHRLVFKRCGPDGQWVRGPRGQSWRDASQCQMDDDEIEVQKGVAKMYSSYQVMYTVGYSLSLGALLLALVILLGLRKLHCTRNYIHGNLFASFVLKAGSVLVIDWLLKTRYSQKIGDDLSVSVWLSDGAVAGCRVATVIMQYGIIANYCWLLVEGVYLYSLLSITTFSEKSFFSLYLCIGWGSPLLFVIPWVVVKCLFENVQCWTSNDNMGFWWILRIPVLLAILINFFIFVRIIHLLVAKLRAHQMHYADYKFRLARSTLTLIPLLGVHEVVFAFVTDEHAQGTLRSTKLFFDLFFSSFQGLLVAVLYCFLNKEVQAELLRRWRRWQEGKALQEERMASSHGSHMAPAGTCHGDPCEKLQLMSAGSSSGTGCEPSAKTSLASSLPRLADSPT
RUN DESCRIPTION: Relative binding by measuring competition for glucagon receptor between [125]glucagon and the compound.
EXPERIMENTAL ENDPOINT: Relative binding (%)

SUBSTANCE: Ac-FTSDYSKYL-NH2
UNIT TAG: %
Relative binding: 0
--
SUBSTANCE: H-HSQGTFTSDYS-NH2
UNIT TAG: %
Relative binding: 0
--
SUBSTANCE: GLUCAGON
UNIT TAG: %
Relative binding: 100
--
SUBSTANCE: H-YSKYLDSRRAQ-NH2
UNIT TAG: %
Relative binding: 0
--
SUBSTANCE: H-DSRRAQDFVQWL-NH2
UNIT TAG: %
Relative binding: 0
--
SUBSTANCE: H-TFTSDYSKYLDS-NH2
UNIT TAG: %
Relative binding: 0

###

MEASURED ON: Adenylate cyclase (Rattus norvegicus) (UniProt D4A3N4+P26770+Q04400+P26769+Q03343+P40146+Q8CFM9+P21932)
RUN DESCRIPTION: Adenylate cyclase stimulation; Inactive up to 100 uM.
Type: protein assay
Calls of active or inactive are those of the source. The calls are words filed in the database; no cut-off is given here. Peptide text beside a SMILES is read from it.
EXPERIMENTAL ENDPOINT: IA

COMPOUND: CC(=O)N[C@@H](Cc1ccccc1)C(=O)N[C@H]1CSSC[C@@H](C(=O)N[C@@H](Cc2ccc(O)cc2)C(=O)N[C@@H](CC(C)C)C(N)=O)NC(=O)[C@H](CO)NC(=O)[C@H](Cc2ccc(O)cc2)NC(=O)[C@H](CC(=O)O)NC(=O)[C@H](CO)NC1=O (HELM PEPTIDE1{[ac].F.C.S.D.Y.S.C.Y.L.[am]}$PEPTIDE1,PEPTIDE1,3:R3-8:R3$$$V2.0)
EXPERIMENTAL ENDPOINT: IA
OBSERVED: Inactive up to 100 uM

COMPOUND: CC(=O)N[C@@H](Cc1ccccc1)C(=O)N[C@H](C(=O)N[C@@H](CO)C(=O)N[C@@H](CS)C(=O)N[C@@H](Cc1ccc(O)cc1)C(=O)N[C@@H](CO)C(=O)N[C@@H](CCCCN)C(=O)N[C@@H](Cc1ccc(O)cc1)C(=O)N[C@@H](CS)C(=O)N[C@@H](CC(=O)O)C(N)=O)[C@@H](C)O (Ac-FTSCYSKYCD-NH2)
EXPERIMENTAL ENDPOINT: IA
OBSERVED: Inactive up to 100 uM

###

MEASURED ON: Adenylate cyclase (Rattus norvegicus) (UniProt D4A3N4+P26770+Q04400+P26769+Q03343+P40146+Q8CFM9+P21932)
RUN DESCRIPTION: Maximum stimulation of adenylate cyclase.
Assay type: protein assay
Peptide text beside a SMILES is read from it.
EXPERIMENTAL ENDPOINT: Max stimulation (%)
Kindly provide the numeric value in % only, without the unit symbol.

MOLECULE: CC(=O)N[C@@H]1CSSC[C@H](C(N)=O)NC(=O)[C@@H](Cc2ccc(O)cc2)NC(=O)[C@H](CCCCN)NC(=O)[C@@H](CO)NC(=O)[C@H](Cc2ccc(O)cc2)NC1=O
EXPERIMENTAL ENDPOINT: Max stimulation
OBSERVED: 0

Would you kindly look at the next entry?
So what's the measured Max stimulation for this one? CC(=O)N[C@@H](Cc1ccccc1)C(=O)N[C@@H](CS)C(=O)N[C@@H](CO)C(=O)N[C@@H](CC(=O)O)C(=O)N[C@@H](Cc1ccc(O)cc1)C(=O)N[C@@H](CO)C(=O)N[C@@H](CS)C(=O)N[C@@H](Cc1ccc(O)cc1)C(=O)N[C@@H](CC(C)C)C(N)=O (Ac-FCSDYSCYL-NH2) 0

###

MEASURED ON: Glucagon receptor (Rattus norvegicus)
Sequence (P30082 whole entry): as above
RUN DESCRIPTION: IC50 value was expressed as inhibition of [125]glucagon specific binding.
EXPERIMENTAL ENDPOINT: IC50 (nM)

I = Ac-YSKYLDSRRAQDFVQWLMNT-NH2
II = Ac-FTSDYSKYLDSRRAQDFVQWLMNT-NH2
Thinking about recorded IC50 values, which is higher, I or II ? Give the chosen item's label as your response. I
(I: 60 nM, II: 31 nM)

###

MEASURED ON: Glucagon receptor (Rattus norvegicus) (UniProt P30082)
RUN DESCRIPTION: Relative binding by measuring competition for glucagon receptor between [125]glucagon and the compound.
Peptide text beside a SMILES is read from it.
EXPERIMENTAL ENDPOINT: Relative binding (%)
Kindly provide the numeric value in % only, without the unit symbol.

MOLECULE: CC(=O)N[C@@H](Cc1ccccc1)C(=O)N[C@H](C(=O)N[C@@H](CO)C(=O)N[C@@H](CS)C(=O)N[C@@H](Cc1ccc(O)cc1)C(=O)N[C@@H](CO)C(=O)N[C@@H](CCCCN)C(=O)N[C@@H](Cc1ccc(O)cc1)C(=O)N[C@@H](CS)C(=O)N[C@@H](CC(=O)O)C(N)=O)[C@@H](C)O (Ac-FTSCYSKYCD-NH2)
Relative binding (%): 32
//
MOLECULE: CC(=O)N[C@@H](Cc1ccccc1)C(=O)N[C@H]1CSSC[C@@H](C(=O)N[C@@H](Cc2ccc(O)cc2)C(=O)N[C@@H](CC(C)C)C(N)=O)NC(=O)[C@H](CO)NC(=O)[C@H](Cc2ccc(O)cc2)NC(=O)[C@H](CC(=O)O)NC(=O)[C@H](CO)NC1=O (HELM PEPTIDE1{[ac].F.C.S.D.Y.S.C.Y.L.[am]}$PEPTIDE1,PEPTIDE1,3:R3-8:R3$$$V2.0)
Relative binding (%): 24

Would you kindly look at the next entry?
So what's the measured Relative binding for this one? CC(=O)N[C@@H](Cc1ccccc1)C(=O)N[C@@H](CS)C(=O)N[C@@H](CO)C(=O)N[C@@H](CC(=O)O)C(=O)N[C@@H](Cc1ccc(O)cc1)C(=O)N[C@@H](CS)C(=O)N[C@@H](CCCCN)C(=O)N[C@@H](Cc1ccc(O)cc1)C(=O)N[C@@H](CC(C)C)C(N)=O (Ac-FCSDYCKYL-NH2) 30

The origin of these recorded values is ChEMBL document CHEMBL1134405.
